- Test system: Lolium multiflorum Lamk
- assayDetails: Pot experiment, soil treatment, control of Lolium multiflorum Lamk (fresh weight, Colby)
- Type: in vivo
- measurementSetup: g ai/ha: pyroxasulfone 22.5; fluorochloridone 62.5; aclonifen 300; diflufenican 28.125; terbutryn 281.25; mixtures: both AIs at these rates; after 35 days
measurementKind: Measured fresh weight survival rate (%) - E
Give bare numbers, in %.

Take a look at these entries with their results.
{"columns": ["compoundSmiles", "reportedMeasurement"],
 "data": [
  ["Nc1c([N+](=O)[O-])ccc(Oc2ccccc2)c1Cl", 3.6],
  ["O=C(Nc1ccc(F)cc1F)c1cccnc1Oc1cccc(C(F)(F)F)c1", 12.0],
  ["CCNc1nc(NC(C)(C)C)nc(SC)n1", 5.2]
]}

Which Measured fresh weight survival rate (%) - E value belongs to Cn1nc(C(F)(F)F)c(CS(=O)(=O)C2=NOC(C)(C)C2)c1OC(F)F ? 5.2
